Where do these numbers come from? They come from paper PMC7145665.

What Kd was measured for each of the following?
target: WT pol β (Homo sapiens, UniProt P06746); construct: made in house; test: Single turnover polymerase activity (rapid-quench), WT pol β; format: biochemical; settings: apparent dNTP dissociation constant; APC sequence, templating base C
One number for each entry, in µM.

Check out these entries, answers already filled in.
- molecule: "Nc1nc2c(ncn2[C@H]2C[C@H](O)[C@@H](COP(=O)(O)OP(=O)(O)CP(=O)(O)O)O2)c(=O)[nH]1 [CH2]"
  Kd [µM]: 7.1
- molecule: "Nc1nc2c(ncn2C2CC(O)C(COP(=O)(O)OP(=O)(O)C(Cl)P(=O)(O)O)O2)c(=O)[nH]1 (mixture of isomers) [CHCl]"
  Kd [µM]: 7.8

# map each molecule to its Kd
1. Nc1nc2c(ncn2C2CC(O)C(COP(=O)(O)OP(=O)(O)C(F)P(=O)(O)O)O2)c(=O)[nH]1 (mixture of isomers) [CHF]
2. Nc1nc2c(ncn2[C@H]2C[C@H](O)[C@@H](COP(=O)(O)OP(=O)(O)OP(=O)(O)O)O2)c(=O)[nH]1 [dGTP]
3. Nc1ccn([C@H]2C[C@H](O)[C@@H](COP(=O)(O)OP(=O)(O)OP(=O)(O)O)O2)c(=O)n1 [dCTP]

[A]
7.5
2.3
340

----------
target: WT pol β (Homo sapiens, UniProt P06746); construct: made in house; experiment: Single turnover polymerase activity (rapid-quench), WT pol β; type: biochemical; details: Control in APC sequence, templating base C
reported.property: Specificity (kpol/KD) (M⁻¹ s⁻¹)
One number for each entry, in M⁻¹ s⁻¹.

- molecule: "Nc1nc2c(ncn2C2CC(O)C(COP(=O)(O)OP(=O)(O)C(Cl)P(=O)(O)O)O2)c(=O)[nH]1 (mixture of isomers) [CHCl]"
  study.system: "WT pol β (Homo sapiens, UniProt P06746)"
  Specificity (kpol/KD), M⁻¹ s⁻¹: "2.1e+06"

Give one value of Specificity (kpol/KD) per listed molecule.
1. Nc1nc2c(ncn2C2CC(O)C(COP(=O)(O)OP(=O)(O)C(F)P(=O)(O)O)O2)c(=O)[nH]1 (mixture of isomers) [CHF]
2. Nc1nc2c(ncn2[C@H]2C[C@H](O)[C@@H](COP(=O)(O)OP(=O)(O)OP(=O)(O)O)O2)c(=O)[nH]1 [dGTP]
3. Nc1nc2c(ncn2[C@H]2C[C@H](O)[C@@H](COP(=O)(O)OP(=O)(O)CP(=O)(O)O)O2)c(=O)[nH]1 [CH2]

[A]
1: 9e+06; 2: 1.3e+07; 3: 1.4e+06

----------
biological target: K289M pol β (Homo sapiens, UniProt P06746, K289M); construct: made in house; assay: Single turnover polymerase activity (rapid-quench), K289M pol β; format: biochemical; conditions: APC in Control sequence, templating base C
reported.property: kpol
Report the figure along with its unit, number first.

- compound: "Nc1ccn([C@H]2C[C@H](O)[C@@H](COP(=O)(O)OP(=O)(O)OP(=O)(O)O)O2)c(=O)n1"
  kpol: "0.05 s⁻¹"
- compound: "Nc1nc2c(ncn2[C@H]2C[C@H](O)[C@@H](COP(=O)(O)OP(=O)(O)OP(=O)(O)O)O2)c(=O)[nH]1"
  kpol: "1.50 s⁻¹"
- compound: "Nc1nc2c(ncn2C2CC(O)C(COP(=O)(O)OP(=O)(O)C(Cl)P(=O)(O)O)O2)c(=O)[nH]1 (mixture of isomers) [CHCl]"
  kpol: "1.37 s⁻¹"
- compound: "Nc1nc2c(ncn2[C@H]2C[C@H](O)[C@@H](COP(=O)(O)OP(=O)(O)CP(=O)(O)O)O2)c(=O)[nH]1"
  kpol: "1.17 s⁻¹"

Here is another compound to look at.
[Q] Field: kpol (K289M pol β (Homo sapiens, UniProt P06746, K289M)). Entry: Nc1nc2c(ncn2C2CC(O)C(COP(=O)(O)OP(=O)(O)C(F)P(=O)(O)O)O2)c(=O)[nH]1 (mixture of isomers)
[A] 1.36 s⁻¹

----------
Would you mind telling me the reported Specificity (kpol/KD) of each entry?
biological target: K289M pol β (Homo sapiens, UniProt P06746, K289M); construct: made in house; assay: Single turnover polymerase activity (rapid-quench), K289M pol β; type: biochemical; settings: Control in APC sequence, templating base C
One number for each entry, in M⁻¹ s⁻¹.

Example results:
- molecule: "Nc1nc2c(ncn2C2CC(O)C(COP(=O)(O)OP(=O)(O)C(Cl)P(=O)(O)O)O2)c(=O)[nH]1 (mixture of isomers) [CHCl]"
  Specificity (kpol/KD), M⁻¹ s⁻¹: 160000
- molecule: "Nc1nc2c(ncn2[C@H]2C[C@H](O)[C@@H](COP(=O)(O)OP(=O)(O)OP(=O)(O)O)O2)c(=O)[nH]1"
  Specificity (kpol/KD), M⁻¹ s⁻¹: "1.37e+06"
- molecule: "Nc1nc2c(ncn2[C@H]2C[C@H](O)[C@@H](COP(=O)(O)OP(=O)(O)CP(=O)(O)O)O2)c(=O)[nH]1"
  Specificity (kpol/KD), M⁻¹ s⁻¹: 380000

Next molecule, please.
[Q] # query: Specificity (kpol/KD) of entry Nc1nc2c(ncn2C2CC(O)C(COP(=O)(O)OP(=O)(O)C(F)P(=O)(O)O)O2)c(=O)[nH]1 (mixture of isomers)
[A] 1.25e+06

----------
target: K289M pol β (Homo sapiens, UniProt P06746, K289M); construct: made in house; assay: Single turnover polymerase activity (rapid-quench), K289M pol β; type: biochemical; details: apparent dNTP dissociation constant; Control sequence, templating base C
Provide the reported Kd of each item.
Answers are plain numbers, in nM.

Completed entries (count: 4):
- compound: "Nc1nc2c(ncn2[C@H]2C[C@H](O)[C@@H](COP(=O)(O)OP(=O)(O)CP(=O)(O)O)O2)c(=O)[nH]1"
  Kd, nM: 2200
- compound: "Nc1ccn([C@H]2C[C@H](O)[C@@H](COP(=O)(O)OP(=O)(O)OP(=O)(O)O)O2)c(=O)n1"
  Kd, nM: 778000
- compound: "Nc1nc2c(ncn2[C@H]2C[C@H](O)[C@@H](COP(=O)(O)OP(=O)(O)OP(=O)(O)O)O2)c(=O)[nH]1"
  Kd, nM: 1000
- compound: "Nc1nc2c(ncn2C2CC(O)C(COP(=O)(O)OP(=O)(O)C(Cl)P(=O)(O)O)O2)c(=O)[nH]1 (mixture of isomers) [CHCl]"
  Kd, nM: 2850

Kindly consider the entry below.
[Q] Data request, read-out Kd, for Nc1nc2c(ncn2C2CC(O)C(COP(=O)(O)OP(=O)(O)C(F)P(=O)(O)O)O2)c(=O)[nH]1 (mixture of isomers)
[A] 1300

----------
Provide the recorded Specificity (kpol/KD) for the entries that follow.
Target: WT pol β (Homo sapiens, UniProt P06746)
Construct: made in house
Test: Single turnover polymerase activity (rapid-quench), WT pol β
Type: biochemical
Conditions: APC in Control sequence, templating base C
Experimental: A solution containing 50 nM DNA and 200 nM polymerase was rapidly mixed with varying concentrations of dNTP at 37 °C in 50 mM Tris pH 8.0, 20 mM NaCl, 10 mM MgCl2, 2 mM DTT and 10% glycerol using a KinTek rapid-quench flow apparatus. […] Fidelity was calculated using the catalytic specificity (kpol/KD) for correct (dGTP) and incorrect (dCTP): (kpol/KD)correct/(kpol/KD) incorrect ([37]).

Worked cases, Specificity (kpol/KD) given:
- molecule: "Nc1nc2c(ncn2[C@H]2C[C@H](O)[C@@H](COP(=O)(O)OP(=O)(O)OP(=O)(O)O)O2)c(=O)[nH]1 [dGTP]"
  study.system: "WT pol β (Homo sapiens, UniProt P06746)"
  reported.property: "Specificity (kpol/KD)"
  result: "8.1e+06 M⁻¹ s⁻¹"
- molecule: "Nc1nc2c(ncn2C2CC(O)C(COP(=O)(O)OP(=O)(O)C(Cl)P(=O)(O)O)O2)c(=O)[nH]1 (mixture of isomers) [CHCl]"
  study.system: "WT pol β (Homo sapiens, UniProt P06746)"
  reported.property: "Specificity (kpol/KD)"
  result: "2.9e+06 M⁻¹ s⁻¹"
- molecule: "Nc1nc2c(ncn2[C@H]2C[C@H](O)[C@@H](COP(=O)(O)OP(=O)(O)CP(=O)(O)O)O2)c(=O)[nH]1 [CH2]"
  study.system: "WT pol β (Homo sapiens, UniProt P06746)"
  reported.property: "Specificity (kpol/KD)"
  result: "900000 M⁻¹ s⁻¹"

[Q] Which Specificity (kpol/KD) is reported for this molecule? Nc1nc2c(ncn2C2CC(O)C(COP(=O)(O)OP(=O)(O)C(F)P(=O)(O)O)O2)c(=O)[nH]1 (mixture of isomers) [CHF]
[A] 4.8e+06 M⁻¹ s⁻¹

----------
molecular target: K289M pol β (Homo sapiens, UniProt P06746, K289M); construct: made in house; experiment: Single turnover polymerase activity (rapid-quench), K289M pol β; type: biochemical; conditions: Control sequence, templating base C
reported.property: Specificity (kpol/KD) (M⁻¹ s⁻¹)
One number for each entry, in M⁻¹ s⁻¹.

- compound: "Nc1nc2c(ncn2[C@H]2C[C@H](O)[C@@H](COP(=O)(O)OP(=O)(O)CP(=O)(O)O)O2)c(=O)[nH]1"
  study.system: "K289M pol β (Homo sapiens, UniProt P06746, K289M)"
  unit.abbreviation: "M⁻¹ s⁻¹"
  result: 260000
- compound: "Nc1nc2c(ncn2C2CC(O)C(COP(=O)(O)OP(=O)(O)C(Cl)P(=O)(O)O)O2)c(=O)[nH]1 (mixture of isomers) [CHCl]"
  study.system: "K289M pol β (Homo sapiens, UniProt P06746, K289M)"
  unit.abbreviation: "M⁻¹ s⁻¹"
  result: 410000
- compound: "Nc1nc2c(ncn2C2CC(O)C(COP(=O)(O)OP(=O)(O)C(F)P(=O)(O)O)O2)c(=O)[nH]1 (mixture of isomers)"
  study.system: "K289M pol β (Homo sapiens, UniProt P06746, K289M)"
  unit.abbreviation: "M⁻¹ s⁻¹"
  result: "1.15e+06"

# input for lookup
[Q] Tell me the measured Specificity (kpol/KD) of "Nc1nc2c(ncn2[C@H]2C[C@H](O)[C@@H](COP(=O)(O)OP(=O)(O)OP(=O)(O)O)O2)c(=O)[nH]1" , please.
[A] 1.54e+06
